- Tested on: P. falciparum stage V gametocytes
- Set-up: BacTiter-Glo ATP luminescence viability of purified stage V gametocytes in 384-well plates, per cent inhibition versus DMSO
- condition_set: 48 h, 5 µM; inhibitor
Out of some 13,000 compounds screened, about 3,200 (25%) showed an effect of 50% or more. The list shows a part of the results.
Label rule, in plain words: % Inhibition of 20% and up is True, under 20% is False.

* COc1ccccc1/C=C/C(=O)N(C)C1CCN(CCCCCNC(=O)/C=C/c2ccc(Cl)c(Cl)c2)CC1 [TCMDC-139985] | False
* Cc1ccc2c(OCCN3CCC(Cc4ccc5c(c4)NC(=O)CO5)CC3)cc(F)cc2n1 [TCMDC-141356] | True
* COc1ccc2ncc(F)c(CCN3CC[C@@H](CNCc4nc5c(cc4C)SCC(=O)N5)C3)c2n1 [TCMDC-136056] | True
* COc1ccc2ncc(F)c(CCN3CC[C@@H](CNCc4cc5c(cn4)OCS5)C3)c2n1 [TCMDC-135643] | True
* CN(C(=O)/C=C/c1ccccc1F)C1CCN(CCCCCNC(=O)/C=C/c2ccc(Cl)c(Cl)c2)CC1 [TCMDC-139992] | True
* COc1ccc2ncc(F)c(CCN3CC[C@H](NC(=O)c4ccc5c(n4)NC(=O)CS5)[C@H](O)C3)c2n1 [TCMDC-135907] | False
* Clc1ccc(-c2ncc(-c3ccncc3)[nH]2)cc1Cl [TCMDC-135775] | False
* Cc1c(Cc2ccc(F)cc2)c(Cl)nc2nc(N)nc(N)c12 [TCMDC-137680] | False
* CCCCc1cc(NCC)nc(Nc2ccc(OC)cc2)n1 [TCMDC-133991] | False
* COc1ccc2ncc(F)c(CCN3CCC[C@H](CNCc4ccc5c(n4)NC(=O)CS5)C3)c2n1 [TCMDC-136318] | True
* OCCOCn1cnc2cnc(N[C@H]3OC[C@H](O)[C@@H](O)[C@@H]3O)nc21 [TCMDC-138106] | False
* CCOC(=O)CC[C@@H](NC(=O)c1ccc(NCc2ccc3ccc4nc(C)[nH]c(=O)c4c3c2)cc1F)C(=O)N[C@@H](Cc1c[nH]c2ccccc12)C(=O)OCC [TCMDC-137320] | True
* COc1ccc2ncc(Cl)c(CCN3C[C@H](CNCc4ccc5c(n4)NC(=O)CS5)[C@H](O)C3)c2n1 [TCMDC-136241] | False
* Cc1nn(-c2ccc(Cl)cc2)c2[nH]c(CN3CCN(c4cccc(Cl)c4)CC3)cc(=O)c12 [TCMDC-124869] | True
* CN(CCCCNC(=O)c1cc2ccccc2[nH]1)C1CC2(CCN(C(=O)OC(C)(C)C)CC2)c2ccccc21 (stereo not shown) [TCMDC-132884] | True
* CN1CCC(N(C)C(=O)C=Cc2cn(-c3ccccc3)nc2-c2cc3ccccc3o2)CC1 [TCMDC-124569] | True

###

- Test system: P. falciparum stage V gametocytes
- Set-up: BacTiter-Glo ATP luminescence viability of purified stage V gametocytes in 384-well plates, per cent inhibition versus DMSO
- condition_set: 48 h, 5 µM; inhibitor
Hit rate of the full screen: of about 13,000 compounds, about 3,200 (25%) showed an effect of 50% or more. The list shows a part of the results.
result_type: % Inhibition (%)

• CC(C)(C)c1ccc(CN2CCC(NC(=O)c3ccc(-c4ccccc4F)s3)CC2)cc1 [TCMDC-134349] = 3.235
• CC(=NNC(N)=O)C1=C(O)C(c2ccccc2)N(C2CCCCC2)C1=O (stereo not shown) [TCMDC-131672] = -9.176
• CCc1cn2c3c(cc(C(=O)N[C@@H](Cc4ccccc4)[C@H](O)CNCc4ccccc4)cc13)N(C)S(=O)(=O)CC2 [TCMDC-135883] = 74.56
• Cc1ccc(CNc2cc(C(F)(F)F)nc(-c3ccc(S(C)(=O)=O)cc3)n2)cc1 [TCMDC-138598] = 20.79
• N#Cc1ccc(CN2CCC(Oc3ccc(NC(=O)c4ccsc4)cc3Cl)C2)cc1 (stereo not shown) [TCMDC-133961] = 27.45
• CC[C@@H]([C@@H](CC(C)C)C(=O)N[C@@H](CCCCNC(=O)OCc1ccccc1)C(=O)Nc1ccccn1)N(O)C=O [TCMDC-137163] = 20.28
• CCNC[C@@H](O)[C@H](Cc1ccccc1)NC(=O)c1cc2c3c(c1)c(CC)cn3CCS(=O)(=O)N2C [TCMDC-135800] = 27.6
• O=C(NC1CC1c1ccccc1)N(CCCn1ccnc1)Cc1csc(-c2ccc(CNCc3ccccc3)cc2)n1 (stereo not shown) [TCMDC-141644] = 86.73
• CCCC[C@@H](C(=O)NCCc1ccc(Cl)cc1)N1C(=O)CCC1C(=O)Nc1ccc(Cl)c(Cl)c1 (stereo partly shown) [TCMDC-141410] = 67.56
• CCc1cn2c3c(cc(C(=O)N[C@@H](Cc4ccccc4)[C@H](O)CNCc4ccc(C)cc4)cc13)N(C)S(=O)(=O)CC2 [TCMDC-135924] = 11.35
• CCCCNC[C@@H](O)[C@H](Cc1ccccc1)NC(=O)c1cc2c3c(c1)c(CC)cn3CCS(=O)(=O)N2C [TCMDC-135802] = 53.96
• CCCCCCN(CCCCCC)CC(O)c1cc(-c2ccc(Cl)cc2)nc2c(C)cc(C)cc12 (stereo not shown) [TCMDC-125503] = -72.43
• COc1ccc(CCC(C)(C)NCC(O)c2cccc(C(F)(F)F)c2)cc1 (stereo not shown) [TCMDC-131504] = -35.85
• COC(=O)c1ccc(CC(C)NCC(O)c2cccc(SC(F)(F)F)c2)cc1 (stereo not shown) [TCMDC-131494] = 25.48
• CSc1cccc(Nc2nc3ccc(S(=O)(=O)NC(C)C(C)C)cc3n2[C@H](C)C(C)(C)C)c1 (stereo partly shown) [TCMDC-136239] = -63.84
• CC(C)CNCc1cccc(-c2cccc(CN(C(=O)NC3CCCCC3)C3CCN(Cc4ccccc4)CC3)c2)c1 [TCMDC-140627] = 95.46
• CN(C)C(CNC(=O)c1cc(-c2ccncc2)c(-c2ccc(NC(=O)Nc3cccc(Cl)c3)cc2)o1)c1ccccc1 (stereo not shown) [TCMDC-135781] = -15.22
• CCc1cn2c3c(cc(C(=O)N[C@@H](Cc4ccccc4)[C@H](O)CNCc4cccc(C)c4)cc13)N(C)S(=O)(=O)CC2 [TCMDC-135923] = 15.33
• CCCNC[C@@H](O)[C@H](Cc1ccccc1)NC(=O)c1cc2c3c(c1)c(CC)cn3CCS(=O)(=O)N2C [TCMDC-135863] = 78.77
• CCNC(=O)N1CCN(c2nc(-c3ccccc3)nc(COC)c2Cc2ccc(C)cc2)CC1 [TCMDC-124783] = 37.5
• N#Cc1cccc(-c2cnc(N)c(-c3nc4ccc(S(N)(=O)=O)cc4[nH]3)c2)c1 [TCMDC-138816] = 7.84
• Cc1cccc(CN2CCC(CNC(=O)c3cc4c(-c5ccccc5F)nn(C)c4s3)CC2)c1 [TCMDC-124566] = 59.21
• O=C(CSc1nccn1C1CCCC1)Nc1cc(C(F)(F)F)ccc1Cl [TCMDC-125066] = 0.3827
• COc1cccc(-c2nn(C)c3sc(C(=O)NCCN4CCN(c5ccccc5F)CC4)cc23)c1 [TCMDC-123585] = -24.43
• COc1ccc(NC(=O)c2csc(-c3cc(NC(=O)c4ccnc(N5CCCC5)c4)ccc3C)c2)cc1N1CCN(C)CC1 [TCMDC-136374] = 23.12

###

- Tested on: P. falciparum stage V gametocytes
- Set-up: BacTiter-Glo ATP luminescence viability of purified stage V gametocytes in 384-well plates, per cent inhibition versus DMSO
- condition_set: 48 h, 5 µM; inhibitor
Among all 13,000 compounds or so, about 3,200 (25%) showed an effect of 50% or more. This is one part of the list.
# if value of % Inhibition reaches 40%, tag Satisfied; if it stays below, tag Not satisfied

* CCCN1CCN(Cc2ccc(-c3ccc(-c4nc5ccccc5[nH]4)s3)cc2)CC1 | Not satisfied
* Cc1[nH]c(C)c(-c2csc3ccccc23)c(=O)c1Cl | Satisfied
* Cc1cc(NCCCCCCN)nc(Nc2ccc(Cl)cc2)n1 | Satisfied
* CCCN(CCCN(CCCN(CCC)C(C)C)c1cc(C)nc(Nc2ccc(Cl)cc2)n1)C(C)C | Satisfied
* c1ccc2[nH]c(-c3ccc(-c4ccc(CN5CCN(CCN6CCOCC6)CC5)cc4)s3)nc2c1 | Not satisfied
* c1ccc2[nH]c(-c3ccc(-c4ccc(CN5CCN(c6ccncc6)CC5)cc4)s3)nc2c1 | Not satisfied
* CN(C)CCN(C)Cc1ccc(-c2cccc(-c3nc4ccccc4[nH]3)c2)cc1 | Not satisfied
* Cc1[nH]c(C)c(-c2ccc(C(=O)c3ccccc3)cc2)c(=O)c1Br | Satisfied
* COc1ccc(Cn2ccc3c4c(N)nc(N)nc4ccc32)cc1 | Satisfied
* Cl.Oc1ccc(C2CNCCc3c2cc(O)c(OCc2ccccc2)c3Cl)cc1 (centres unmarked) | Not satisfied
* c1cncc(CN2CCN(Cc3ccc(-c4ccc(-c5nc6ccccc6[nH]5)s4)cc3)CC2)c1 | Satisfied
* CCCN(CCC)CCCN(CCCN(CCC)CCC)c1cc(C)nc(Nc2ccc(Cl)cc2)n1 | Satisfied
* CCNc1cc(C)nc(Nc2ccc(C)cc2)n1 | Not satisfied
* COc1ccc(Cl)cc1N1CCN(CCCNC(=O)c2ccc(-c3nc4cc5ccccc5cc4[nH]3)c(F)c2)CC1 | Not satisfied
* Cc1[nH]c(C)c(-c2ccc(C(=O)c3ccc(Cl)cc3)cc2)c(=O)c1Cl | Satisfied
* CN(CCc1ccccn1)Cc1ccc(-c2ccc(-c3nc4ccccc4[nH]3)s2)cc1 | Satisfied
* CCOC(=O)c1c(C)n(C2CCCCCC2)c2cc(Br)c(O)cc12 | Not satisfied
